# System: Klebsiella pneumoniae
# assay name: Antibacterial activity against Klebsiella pneumoniae ATCC 700603 incubated for 18 hrs by broth microdilution method
# Assay type: functional
Can you tell me MIC for the items I'm about to list?
Give bare numbers, in µM.

Solved entries (count: 2):
[[record]]
given_smiles = "NCCCC[C@@H](NC(=O)[C@H](N)Cc1c[nH]c2ccccc12)C(=O)N[C@H](Cc1c[nH]c2ccccc12)C(=O)N[C@H](CCCCN)C(=O)N[C@H](Cc1c[nH]c2ccccc12)C(=O)N[C@@H](CC(N)=O)C(=O)NCC(=O)N[C@H](Cc1c[nH]c2ccccc12)C(=O)N[C@H](CCCCN)C(=O)N[C@H](Cc1c[nH]c2ccccc12)C(=O)N[C@H](CCCCN)C(=O)N[C@H](Cc1c[nH]c2ccccc12)C(N)=O"
unit_of_measurement = "µM"
assay_result = 8

[[record]]
given_smiles = "NCCCC[C@@H](N)C(=O)N[C@H](Cc1c[nH]c2ccccc12)C(=O)N[C@H](CCCCN)C(=O)N[C@H](Cc1c[nH]c2ccccc12)C(=O)N[C@H](CCCCN)C(=O)N[C@@H](CC(N)=O)C(=O)NCC(=O)N[C@H](CCCCN)C(=O)N[C@H](Cc1c[nH]c2ccccc12)C(=O)N[C@H](CCCCN)C(=O)N[C@H](Cc1c[nH]c2ccccc12)C(=O)N[C@H](CCCCN)C(N)=O"
unit_of_measurement = "µM"
assay_result = 64


Lookup: Using the record for "NCCCC[C@@H](N)C(=O)N[C@H](Cc1c[nH]c2ccccc12)C(=O)N[C@H](CCCCN)C(=O)N[C@H](Cc1c[nH]c2ccccc12)C(=O)N[C@H](CCCCN)C(=O)N1CCC[C@@H]1C(=O)N1CCC[C@H]1C(=O)N[C@H](CCCCN)C(=O)N[C@H](Cc1c[nH]c2ccccc12)C(=O)N[C@H](CCCCN)C(=O)N[C@H](Cc1c[nH]c2ccccc12)C(=O)N[C@H](CCCCN)C(N)=O" , report its MIC.
Found: 16
